- test.system: T1, PD-1 His protein (Beijing Sino Biological Inc.) (UniProt Q15116 25-167, limits assumed)
- T1 construct: Bought reagent, analyte in the Biacore assay; not shown: His tag
- T1 sequence (Q15116 25-167 limits assumed): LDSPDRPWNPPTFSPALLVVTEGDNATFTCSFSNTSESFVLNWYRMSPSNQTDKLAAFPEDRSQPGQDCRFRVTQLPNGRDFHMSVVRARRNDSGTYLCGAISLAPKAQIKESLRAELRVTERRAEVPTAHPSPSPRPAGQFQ
- assay.procedure: Biacore SPR as in Example 5, PD-1 His as analyte
Each entry below carries its recorded Kd.
Entry rule: numbers only, all in nM.

{"binder": "humanized antibody H005-3 (antibody, human IgG4 S228P, kappa, F234A L235A, name in Kabat numbering, V domains shown, Back-mutated variant of H005-1, IgG4 constant region) VH: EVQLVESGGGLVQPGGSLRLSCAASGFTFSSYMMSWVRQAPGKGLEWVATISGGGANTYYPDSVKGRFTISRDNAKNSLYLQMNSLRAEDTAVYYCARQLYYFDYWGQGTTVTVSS VL: DIQMTQSPSSLSASVGDRVTITCLASQTIGTWLTWYQQKPGKSPKLLIYTATSLADGVPSRFSGSGSGTDFTLTISSLQPEDFATYYCQQVYSIPWTFGGGTKVEIKR", "quantitative.readout": 2.45}
{"binder": "humanized antibody H005-2 (antibody, human IgG4 S228P, kappa, F234A L235A, name in Kabat numbering, V domains shown, Back-mutated variant of H005-1, IgG4 constant region) VH: EVQLVESGGGLVQPGGSLRLSCAASGFTFSSYMMSWVRQAPGKRLEWVATISGGGANTYYPDSVKGRFTISRDNAKNSLYLQMNSLRAEDTAVYYCARQLYYFDYWGQGTTVTVSS VL: DIQMTQSPSSLSASVGDRVTITCLASQTIGTWLTWYQQKPGKAPKLLIYTATSLADGVPSRFSGSGSGTDFTLTISSLQPEDFATYYCQQVYSIPWTFGGGTKVEIKR", "quantitative.readout": 2.98}
{"binder": "humanized antibody H005-1 (antibody, human IgG4 S228P, kappa, F234A L235A, V domains shown, CDR graft of mAb005 on IgHV3-7/JH6 and IGKV1-39/JK4, IgG4 constant region; expressed in HEK293 cells; also called PD-1 antibody H005-1) VH: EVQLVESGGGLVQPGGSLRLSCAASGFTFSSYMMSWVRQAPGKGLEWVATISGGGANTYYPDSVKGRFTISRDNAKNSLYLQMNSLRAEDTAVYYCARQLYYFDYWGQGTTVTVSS VL: DIQMTQSPSSLSASVGDRVTITCLASQTIGTWLTWYQQKPGKAPKLLIYTATSLADGVPSRFSGSGSGTDFTLTISSLQPEDFATYYCQQVYSIPWTFGGGTKVEIKR", "quantitative.readout": 2.79}

Next binder, please.
Looking up humanized antibody H005-4 (antibody, human IgG4 S228P, kappa, F234A L235A, name in Kabat numbering, V domains shown, Back-mutated variant of H005-1, IgG4 constant region) VH: EVQLVESGGGLVQPGGSLRLSCAASGFTFSSYMMSWVRQAPGKRLEWVATISGGGANTYYPDSVKGRFTISRDNAKNSLYLQMNSLRAEDTAVYYCARQLYYFDYWGQGTTVTVSS VL: DIQMTQSPSSLSASVGDRVTITCLASQTIGTWLTWYQQKPGKSPKLLIYTATSLADGVPSRFSGSGSGTDFTLTISSLQPEDFATYYCQQVYSIPWTFGGGTKVEIKR , I see its Kd listed as 3.89
